Assay Target: Human Constitutive (Hu C-20S) β5 Active Subunit (Homo sapiens, UniProt P28074)
Assay Text: IC50 determination, human constitutive 20S proteasome β5c (suc-LLVY-AMC hydrolysis)
Format: biochemical
Settings: Table 3; IC50 against human constitutive β5 active subunit; read-out: Hu-C20S β5
Reported Metric: IC50 (µM)
Numbers only, in µM.

Solved entries:
| Smiles Record | Assay Target | Unit Abbreviation | IC50 |
| --- | --- | --- | --- |
| C[C@H](NC(=O)[C@H](CC(=O)N1CCCC[C@@H]1C)NC(=O)CC1CC1)c1ncc(-c2ccc(F)cc2F)[nH]1 | Human Constitutive (Hu C-20S) β5 Active Subunit (Homo sapiens, UniProt P28074) | µM | 10.5 |
| CC(C)C(=O)CN[C@@H](CC(=O)N1CCCC[C@@H]1C)C(=O)N[C@@H](C)c1ncc(-c2ccc(F)cc2F)[nH]1 | Human Constitutive (Hu C-20S) β5 Active Subunit (Homo sapiens, UniProt P28074) | µM | 9.9 |
| CC[C@H]1CCCCN1C(=O)C[C@H](N)C(=O)N[C@@H](C)c1nc2c(F)cccc2[nH]1 | Human Constitutive (Hu C-20S) β5 Active Subunit (Homo sapiens, UniProt P28074) | µM | 14.2 |
| CC[C@H]1CCCCN1C(=O)C[C@H](NC(=O)CCC(C)(C)C)C(=O)N[C@@H](C)c1nc2c(F)cccc2[nH]1 | Human Constitutive (Hu C-20S) β5 Active Subunit (Homo sapiens, UniProt P28074) | µM | 11.2 |
| CC(C)CCC(=O)N[C@@H](CC(=O)N1CCCC[C@H]1C)C(=O)N[C@@H](C)c1ncc(-c2ccc(F)cc2F)[nH]1 | Human Constitutive (Hu C-20S) β5 Active Subunit (Homo sapiens, UniProt P28074) | µM | 10.5 |

Report IC50 for each item below.
1. CC(C)CCC(=O)N[C@@H](CC(=O)N1CCCCC1)C(=O)N[C@@H](C)c1ncc(-c2ccc(F)cc2F)[nH]1
2. CC[C@H]1CCCCN1C(=O)C[C@H](NC(=O)NCc1ccccc1)C(=O)N[C@@H](C)c1nc2c(F)cccc2[nH]1

7.3
9.4

Data provenance: patent US11203613B2
